Data origin: patent US6900216B2

# tested-system: noradrenaline (NA) reuptake sites (Rattus norvegicus)
# Construct: Frontal cortical tissue from the brains of male Charles River rats
# Sequence (Q63380 1-617): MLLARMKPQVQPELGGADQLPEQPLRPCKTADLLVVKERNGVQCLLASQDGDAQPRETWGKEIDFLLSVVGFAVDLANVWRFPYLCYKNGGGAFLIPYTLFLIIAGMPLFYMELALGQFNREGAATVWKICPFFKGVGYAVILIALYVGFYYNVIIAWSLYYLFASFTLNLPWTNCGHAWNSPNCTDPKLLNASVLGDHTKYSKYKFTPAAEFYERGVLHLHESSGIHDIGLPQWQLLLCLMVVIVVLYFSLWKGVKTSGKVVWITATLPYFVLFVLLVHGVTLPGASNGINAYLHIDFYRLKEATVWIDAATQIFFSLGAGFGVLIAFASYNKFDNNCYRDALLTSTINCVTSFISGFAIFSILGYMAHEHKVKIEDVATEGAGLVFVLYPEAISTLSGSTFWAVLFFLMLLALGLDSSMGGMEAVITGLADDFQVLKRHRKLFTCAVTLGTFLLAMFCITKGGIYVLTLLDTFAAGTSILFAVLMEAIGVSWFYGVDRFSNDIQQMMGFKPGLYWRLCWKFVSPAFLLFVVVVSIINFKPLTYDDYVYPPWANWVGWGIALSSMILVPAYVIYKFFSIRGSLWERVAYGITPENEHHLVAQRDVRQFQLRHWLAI
# assay-details: NA uptake: displacement of [3H]nisoxetine from noradrenaline reuptake sites, rat frontal cortical membranes
# particulars: [3H]nisoxetine 0.6 nM, rat frontal cortical membranes; fit to data from three experiments
measure: Ki (nM)

[a] OCC1=C(c2cc3c(Cl)cccc3s2)N2CCN=C2S1 [Example 4]
[b] Br.C=CCC1=C(c2cccc3sccc23)N2CCN=C2S1 [Example 36, hydrobromide]
[c] CC(C)C1=C(c2ccc3sccc3c2)N2CCN=C2S1 [Example 29]
[d] C1=C(c2cccc3sccc23)N2CCN=C2S1.Cl [Example 2, hydrochloride]
-- ask Output the entries ranked by Ki from maximum down to minimum. Return value: ordered labels per request.
-- reply a, d, c, b

[1] Br.c1cc(C2=C(C3CC3)SC3=NCCN32)c2ccsc2c1 [Example 34, hydrobromide]
[2] CSC1=C(c2cc3ccccc3s2)N2CCN=C2S1 [Example 19]
-- ask Could you tell me which of these two has the smaller Ki figure? First: 1 Second: 2 // return label of chosen record
-- reply 1
(1: 2 nM, 2: 5.3 nM)
